Molecular target: vinculin tail domain (Vin-T, hVinculin891-1066) (Homo sapiens)
Construct: Vin-FL (hVinculin1-1066) and Vin-T (hVinculin891-1066) were ordered from GenScript; 6xHis (TEV cleavable) (N, cleaved yes); made in house; host or cells: E. coli BL21(DE3)
Sequence (P18206 891-1066 isoform P18206-2): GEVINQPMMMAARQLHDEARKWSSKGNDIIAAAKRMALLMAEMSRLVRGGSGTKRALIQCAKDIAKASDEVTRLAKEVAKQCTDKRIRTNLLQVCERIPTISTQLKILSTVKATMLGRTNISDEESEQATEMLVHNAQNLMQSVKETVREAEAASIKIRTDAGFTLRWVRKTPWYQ
Experiment: Fluorescence anisotropy binding to vinculin tail domain
Conditions: 25 nM FITC labelled peptide, pH7.5, 22 °C, one-site binding model, 4 measurements, read-out: Apparent KD for vinculin tail domain (Vin-T)
Ends that are not written are not given here.
MEASURED_ATTRIBUTE: Kd

### Prompt Return the recorded Kd value; entry: MDDLDALLADLES [LD1]
### Response 3.1 µM

This collection of values is drawn from paper PMC12013189.
